Measured values drawn from patent US20180171001A1 for this set.

# system under test: Env of HIV-1 strain 250-4 (HIV-1)
# procedure details: cell-based or functional assay
endpoint: neutralization IC50

>>> result("γ52κ61 (antibody, V domains shown) VH: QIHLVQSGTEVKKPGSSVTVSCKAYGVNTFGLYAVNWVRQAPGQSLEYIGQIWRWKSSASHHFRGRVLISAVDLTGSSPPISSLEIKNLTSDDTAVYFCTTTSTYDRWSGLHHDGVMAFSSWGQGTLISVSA VL: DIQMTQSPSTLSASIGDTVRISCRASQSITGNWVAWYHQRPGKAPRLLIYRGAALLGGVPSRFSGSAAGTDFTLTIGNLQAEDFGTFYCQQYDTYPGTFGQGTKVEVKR")
"> 15 µg/mL"
>>> result("γ15κ18 (antibody, V domains shown) VH: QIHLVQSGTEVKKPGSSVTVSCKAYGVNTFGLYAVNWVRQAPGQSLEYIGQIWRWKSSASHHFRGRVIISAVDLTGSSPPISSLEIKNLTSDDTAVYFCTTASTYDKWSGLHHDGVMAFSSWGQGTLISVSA VL: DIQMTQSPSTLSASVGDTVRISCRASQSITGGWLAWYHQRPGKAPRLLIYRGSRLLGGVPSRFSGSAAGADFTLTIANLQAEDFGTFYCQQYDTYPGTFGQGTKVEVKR")
"> 15 µg/mL"
